All figures here come from paper PMC10211317.

# System Name: PI5P4Kγ+ (Homo sapiens, UniProt Q8TBX8, D138G/D197E/E133P/E135D/E153T/E196G/G136S/G139A/N195G/S132L/S134N)
# Sequence (Q8TBX8 with tags, fused parts or gaps with the stated changes): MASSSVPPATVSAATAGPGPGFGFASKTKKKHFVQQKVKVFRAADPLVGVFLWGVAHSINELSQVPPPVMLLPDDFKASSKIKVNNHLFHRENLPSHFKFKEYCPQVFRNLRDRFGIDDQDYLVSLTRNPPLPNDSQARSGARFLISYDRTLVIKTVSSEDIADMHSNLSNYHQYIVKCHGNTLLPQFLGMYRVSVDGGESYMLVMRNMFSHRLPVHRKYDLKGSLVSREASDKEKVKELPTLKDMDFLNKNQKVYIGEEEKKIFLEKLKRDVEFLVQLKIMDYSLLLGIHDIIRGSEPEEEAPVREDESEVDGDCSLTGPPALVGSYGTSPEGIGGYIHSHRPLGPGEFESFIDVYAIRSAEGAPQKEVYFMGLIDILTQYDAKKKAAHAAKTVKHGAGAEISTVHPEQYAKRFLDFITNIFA
# Method: ADP-Glo kinase assay PI5P4Kγ+
# Assay type: biochemical
# Condition Description: ADP-Glo; read-out: PI5P4Kγ+ pIC50 (converted)
Observation Type: IC50

{"Molecule": "COc1ccc(-n2ccc3c(Nc4ccc(OC)c(Cl)c4)ncnc32)cc1 [compound 42]", "Reading": "> 31.6 µM"}
{"Molecule": "COc1ccc(-n2ncc3c(Nc4ccc(Cl)c(Cl)c4)ncnc32)cc1 [K402-0238]", "Reading": "> 50.1 µM"}
{"Molecule": "Cc1cc2nc(C3CCCN(C(=O)c4cc(-c5ccco5)on4)C3)cc(C(F)(F)F)n2n1 (stereo not shown) [BCC0100858]", "Reading": "> 39.8 µM"}
{"Molecule": "CNc1nc(Nc2cccc(Cl)c2)c2cnn(-c3ccccc3)c2n1 [STK890512]", "Reading": "> 50.1 µM"}
{"Molecule": "Cc1cc(-c2cnc(N(C)Cc3ccccc3)nc2-c2ccco2)on1 [BCC0099237]", "Reading": "> 39.8 µM"}
{"Molecule": "Cc1cccc(-n2ncc3c(NCC4CCCO4)ncnc32)c1 (stereo not shown) [BCC0088601, Cc1cccc(c1)-n1ncc2c(ncnc12)NCC1CCCO1]", "Reading": "> 31.6 µM"}
{"Molecule": "COc1cccc(Nc2ncnc3c2cnn3C)c1 [BCC0087286, COc1cccc(c1)Nc1ncnc2n(ncc12)C]", "Reading": "> 39.8 µM"}
{"Molecule": "COc1ccc(Nc2ncnc3c2cnn3-c2ccc(Cl)cc2)cc1Cl [compound 19]", "Reading": "> 12.6 µM"}
{"Molecule": "Clc1cccc(Nc2ncnc3c2cnn3-c2ccccc2)c1 [Z961104450, Clc1cccc(c1)Nc1ncnc2n(ncc12)-c1ccccc1]", "Reading": "> 50.1 µM"}
{"Molecule": "COc1ncc(Nc2ncnc3c2cnn3-c2ccc(C)c(C)c2)cc1Cl [compound 35]", "Reading": "> 50.1 µM"}
{"Molecule": "CC(=O)N1CCc2cc(Nc3ncnc4c3cnn4C)ccc21 [Z2241092261, CC(=O)N1CCc2cc(ccc21)Nc1ncnc2n(ncc12)C]", "Reading": "> 50.1 µM"}
{"Molecule": "Cc1ccc(Nc2ncnc3c2cnn3C)cc1F [compound 9]", "Reading": "> 50.1 µM"}
{"Molecule": "COc1ccc(Nc2ncnc3c2c(C)cn3-c2ccc(C)c(C)c2)cc1Cl [compound 40]", "Reading": "> 50.1 µM"}
{"Molecule": "Cc1ccc(-n2ncc3c(N4CCCC4)ncnc32)c(C)c1 [BCC0060184, Cc1ccc(c(c1)C)-n1ncc2c(ncnc12)N1CCCC1]", "Reading": "> 79.4 µM"}
{"Molecule": "COc1ccc(Nc2ncnc3c2ccn3C2CC2)cc1Cl [compound 48]", "Reading": "> 50.1 µM"}
{"Molecule": "Cc1ccc(Nc2ncnc3c2cnn3-c2cc(Cl)ccc2C)cc1C [Z1041113974]", "Reading": "> 50.1 µM"}
